- system.name: T1, HER2ECDHis (human, UniProt P04626 23-653, biotinylated in the cross-block ELISA (sites not given))
- T1 construct: range 1-653; expressed in HEK-293F; also called soluble HER2; biotinylated HER2ECDHis
- experiment.summary: ELISA; competitor pert
Kindly state % binding vs no competitor for each of the entries shown.
One number for each entry, in %.

Before answering, review these 2 worked examples.
{"columns": ["binder", "observed.value"],
 "data": [
  ["HuMab 132 (antibody, V domains shown) VH: QVQLVQSGAEVKKPGASVKVSCKASGYTFTSYGISWVRQAPGQGLEWMGWISAYNGNSNYVQKFQGRVTMTTDTTTSTAYMELRSLTSDDTAVYYCAREYSYDSGTYFYYGMDVWGQGTTVTVSS VL: EIVLTQSPATLSLSPGERATLSCRASQSVSSYLAWYQQKPGQAPRLLIYDASNRATGIPARFSGSGSGTDFTLTISSLEPEDFAVYYCQQRSNWPMYTFGQGTKLEIK", 288],
  ["HuMab 159 (antibody, V domains shown, also called TH1014-159; PC1014-159) VH: EVQLVQSGAEVKKPGESLKISCKGSGYNFTSYWIGWVRQMPGKGLEWMGIIYPGDSDTRYSPSFQGQVTISADKSISTAYLQWSSLKASDTAMYYCARWGTYYDILTGYFNWFDPWGQGTLVTVSS VL: DIQMTQSPSSLSASVGDRVTITCRASQGISSWLAWYQQKPEKAPKSLIYAASSLQSGVPSRFSGSGSGTDFTLTISSLQPEDFATYYCQQYYIYPWTFGQGTKVEIK", 112]
]}

Kindly review the next binder as well.
Field % binding vs no competitor (entry HuMab 153 (antibody, V domains shown) VH: QVQLVESGGGVVQPGRSLRLSCAASGFTFSDYVIHWVRQAPGKGLEWVTVISYDGSNKYYADSVKGRFTISRDNSKNTLYLQMNSLSAEDTAMYYCARGGITGTTGVFDYWGQGTLVTVSS VL: DIQMTQSPSSLSASVGDRVTITCRASQGISSWLAWYQQKPEKAPKSLIYDASSLQSGVPSRFSGSGYGTDFSLTISSLQPEDFAIYYCQQYKSYPITFGQGTRLEIK ) reads 121

Cited source for all entries: patent US20170369590A1
